# measurement_target: recombinant human MASP2 active protease (amino acids 297-686, C-terminal His Tag) (human, UniProt O00187 297-686)
# Sequence (O00187 other isoform, or with tags, fused parts or gaps limits assumed): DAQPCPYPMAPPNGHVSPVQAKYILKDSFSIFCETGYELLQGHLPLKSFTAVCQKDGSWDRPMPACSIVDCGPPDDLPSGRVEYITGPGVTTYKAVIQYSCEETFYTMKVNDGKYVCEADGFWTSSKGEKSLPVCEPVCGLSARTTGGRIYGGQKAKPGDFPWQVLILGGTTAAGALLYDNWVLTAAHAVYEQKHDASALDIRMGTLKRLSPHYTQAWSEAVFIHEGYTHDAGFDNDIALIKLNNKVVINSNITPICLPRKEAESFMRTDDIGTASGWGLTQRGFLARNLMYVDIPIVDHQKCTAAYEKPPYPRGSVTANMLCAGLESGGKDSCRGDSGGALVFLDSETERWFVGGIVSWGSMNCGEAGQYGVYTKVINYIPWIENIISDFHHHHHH
# test_summary: cell-based or functional assay
Bridge positions count the residues as written; N and C are the ends. Square brackets hold non-standard residues; d marks the D form. Ends that are not written are not given here. * marks the point of attachment. Oic = O=C(O)[C@@H]1C[C@@H]2CCCC[C@@H]2N1; Cyclopentanecarbonyl = O=C(C1CCCC1)*; NMeI = CC[C@H](C)[C@H](NC)C(=O)O; tBuAla = CC(C)(C)C[C@H](N)C(=O)O; Pen = CC(C)(S)[C@H](N)C(=O)O; NMeC = CN[C@@H](CS)C(=O)O; Sar = CNCC(=O)O
Reported human MASP2 IC50 is given for each of the following binders.

| binder | units_symbol | human MASP2 IC50 |
| --- | --- | --- |
| AICSRSLPPIC[2‑Methyl‑D‑alloisoleucine]PD-NH2 (disulfide 3-11) [Example 374: AIC+SRSLPPIC+(2-Methyl-D-alloisoleucine)-PD-NH2] | nM | 14000 |
| [Sar]ICSRSLP[Oic]I[Pen]IPP[(2S)‑3‑(Triazol-1-yl)‑2‑(amino)propanoic acid]-NH2 (disulfide 3-11) | nM | 44 |
| [Sar][NMeI]CSRSLPPICIPD-NH2 (disulfide 3-11; N-terminus assumed; SMILES CC[C@H](C)[C@@H]1NC(=O)[C@@H]2CCCN2C(=O)[C@@H]2CCCN2C(=O)[C@H](CC(C)C)NC(=O)[C@H](CO)NC(=O)[C@H](CCCNC(=N)N)NC(=O)[C@H](CO)NC(=O)[C@@H](NC(=O)[C@H]([C@@H](C)CC)N(C)C(=O)CNC)CSSC[C@@H](C(=O)N[C@H](C(=O)N2CCC[C@H]2C(=O)N[C@@H](CC(=O)O)C(N)=O)[C@@H](C)CC)NC1=O) [Example 340: ((N-Me)G)-((N-Me)I)-C+SRSLPPIC+IPD-NH2] | nM | 300 |
| [Sar]ICSRSLPPICIPE-OH (disulfide 3-11; N-terminus assumed; SMILES CC[C@H](C)[C@H](NC(=O)CNC)C(=O)N[C@H]1CSSC[C@@H](C(=O)N[C@H](C(=O)N2CCC[C@H]2C(=O)N[C@@H](CCC(=O)O)C(=O)O)[C@@H](C)CC)NC(=O)[C@H]([C@@H](C)CC)NC(=O)[C@@H]2CCCN2C(=O)[C@@H]2CCCN2C(=O)[C@H](CC(C)C)NC(=O)[C@H](CO)NC(=O)[C@H](CCCNC(=N)N)NC(=O)[C@H](CO)NC1=O) [Example 339: ((N-Me)G)-IC+SRSLPPIC+IPE-OH] | nM | 640 |
| AICSRSLPPIC[(2S,3S)‑2‑((Amino)methyl)‑3‑methylpentanoic acid]PD-NH2 (disulfide 3-11) [Example 417: AIC+SRSLPPIC+((2S,3S)-2-((Amino)methyl)-3-methylpentanoic acid)-PD-NH2] | nM | 17000 |
| Cyclopentanecarbonyl-ICSRS[tBuAla]PPI[NMeC]I-NH2 (disulfide 2-10; SMILES CC[C@H](C)[C@H](NC(=O)[C@@H]1CSSC[C@H](NC(=O)[C@@H](NC(=O)C2CCCC2)[C@@H](C)CC)C(=O)N[C@@H](CO)C(=O)N[C@@H](CCCNC(=N)N)C(=O)N[C@@H](CO)C(=O)N[C@@H](CC(C)(C)C)C(=O)N2CCC[C@H]2C(=O)N2CCC[C@H]2C(=O)N[C@@H]([C@@H](C)CC)C(=O)N1C)C(N)=O) [Example 408: (Cyclopentanecarboxylic acid)-IC+SRS-((tBu)A)-PPI-((N-Me)C)+I-NH2] | nM | 32 |
